Source of measurements: patent US20150274802A1

System Tested: type B insulin receptor (UniProt P06213)
Experiment: cell-based or functional assay
Quantity Kind: % (potency at the receptor, assay not named) (%)

(P) GE5W-B^1(A5H10Y16L17)25-C^1-A^1(H8N18N21) (ligand) GEEEEEWGPEALCGAHLVDALYLVCGDRGFYGYGSSSRRAPQTGIVDECCHRSCDLRRLENYCN
(Q) MIU-35: B^1(H5,10Y16L17)25-C^1-A^1(H8N18,21) (ligand) GPEHLCGAHLVDALYLVCGDRGFYGYGSSSRRAPQTGIVDECCHRSCDLRRLENYCN
(R) B^1(A5H10Y16L17)25-C^1-A^1(H8N18N21) (ligand) GPEALCGAHLVDALYLVCGDRGFYGYGSSSRRAPQTGIVDECCHRSCDLRRLENYCN
(S) B^1(H5,10Y16L17A24)25-C^1-A^1(H8N18,N21) (ligand) GPEHLCGAHLVDALYLVCGDRGAYGYGSSSRRAPQTGIVDECCHRSCDLRRLENYCN
Could you list the above binders by % (potency at the receptor, assay not named), going from the biggest number down? A ranking is expressed here by listing the labels in the requested order. Q, R, P, S
